Origin of measurements: ChEMBL document CHEMBL3232987

# System: Staphylococcus aureus
# protocol: Antibacterial activity against gentamicin-resistant Staphylococcus aureus ATCC 33592 by NCCLS two-fold dilution method
# Format: functional
Entries and their MIC

molecule | result.comparator | MIC [µg/mL]
O=C(O)c1cn(Cc2ccc(C(F)(F)F)cc2)c2cc(N3CCN(C(c4ccco4)c4nnnn4C4CCCCC4)CC3)c(F)cc2c1=O (stereo not drawn) | = | 0.78
CCn1cc(C(=O)O)c(=O)c2cc(F)c(N3CCN(C(c4ccc(C(C)C)cc4)c4nnnn4C(C)(C)C)CC3)cc21 (stereo not drawn) | > | 50
COc1ccc(C(c2nnnn2C2CCCCC2)N2CCN(c3cc4c(cc3F)c(=O)c(C(=O)O)cn4Cc3ccc(C(F)(F)F)cc3)CC2)c(OC)c1OC (stereo not drawn) | > | 50
CCn1cc(C(=O)O)c(=O)c2cc(F)c(N3CCN(C(c4ccco4)c4nnnn4C(C)(C)C)CC3)cc21 (stereo not drawn) | = | 0.78
CCn1cc(C(=O)O)c(=O)c2cc(F)c(N3CCN(C(c4ccc(F)cc4)c4nnnn4C4CCCCC4)CC3)cc21 (stereo not drawn) | = | 50
CCn1cc(C(=O)O)c(=O)c2cc(F)c(N3CCN(C(c4ccc(OC)c(OC)c4OC)c4nnnn4C4CCCCC4)CC3)cc21 (stereo not drawn) | = | 1.56
CCn1cc(C(=O)O)c(=O)c2cc(F)c(N3CCN(C(c4ccco4)c4nnnn4C4CCCCC4)CC3)cc21 (stereo not drawn) | = | 0.78
CCn1cc(C(=O)O)c(=O)c2cc(F)c(N3CCN(C(c4ccccc4)c4nnnn4C(C)(C)C)CC3)cc21 (stereo not drawn) | = | 0.39
